System: MALME-3M melanoma
Assay: NCI-60 one-dose screen, 48 h
Details: 10 µM unless noted
Description: Cells are grown in 96 well plates and exposed to the test compound for 48 hours. Compounds are tested at a single concentration, which is 10^-5 M for most compounds. The reported endpoint is percent growth (GI% or GIPRCNT), where numbers from 0 - 100% represent growth inhibition, and numbers from -100% - 0 represent cell death. For example, a value of 40 represents 60% growth inhibition. A value of 0 means no net growth occurred over the course of the experiment. […]
About 83,000 compounds went through this panel and 20% of them were active in at least one assay; those are over-represented in the sample as a whole. Calls of active or inactive are those of the source. The calls were made as follows: active = growth percent below 10; inactive = the rest.
Classes to choose from: 1 (active), 0 (inactive)

CC1=CC[C@@H]2CC[C@]3(C)[C@H](CC[C@@H]4[C@@]5(C)CCCNC(C)(C)[C@@H]5CC[C@]43C)[C@H]2[C@@H]1C ... 1
[O-][n+]1ccccc1CCN(O)CCc1cccc[n+]1[O-] ... 0
Cc1[nH]n(C(=O)c2ccncc2)c(=O)c1N=Nc1ccc(F)c(Cl)c1 ... 0

q: How did this test come out for CC(Oc1ccc(C(=O)NS(=O)(=O)C(C)(C)C)cc1C(F)(F)F)c1ccc(Oc2ccccc2)cn1 (stereo not given) ?
a: 0

q: How did this test come out for O=C1Nc2ccccc2/C1=N/c1nc(-c2ccc(Cl)cc2)cs1 ?
a: 0

---

tested on: SW-620 colon; test: NCI-60 one-dose screen, 48 h (100 = growth as untreated, 0 = no growth, -100 = all killed); conditions: 10 µM unless noted
The panel holds about 83,000 compounds, 20% with a hit somewhere; the sample as a whole holds those more often.
Labelling: growth reported below 30% becomes yes (1); at or above becomes no (0).

# example entries with known answers
O=C(Nc1ccc2ncnc(Nc3ccc(Oc4cccc(F)c4)c(Cl)c3)c2c1)c1ccc(CNCCO)cc1 ... yes (1)
CN1CCN(c2ccc(NC3=C(Cl)C(=O)c4ncccc4C3=O)cc2C#N)CC1 ... yes (1)
FC(F)(F)c1cccc(Oc2ccc(Nc3ncnc4ccc(OCCCN5CCOCC5)cc34)cc2Cl)c1 ... no (0)
COC(=O)Nc1ccc(NC(=O)OC)cc1 ... no (0)

Kindly consider the entry below.
q: In plain terms, does NC(=S)N/N=C(\c1ccc(Cl)cc1)C1CC1 come in under 30% for growth?
a: no (0)

---

test system: SK-MEL-2 melanoma; test: NCI-60 one-dose screen, 48 h (100 = growth as untreated, 0 = no growth, -100 = all killed); details: 10 µM unless noted
Compounds without any hit were thinned out: in the full panel of roughly 83,000, 20% have a hit.
Recorded growth, one value per entry.
Just the number please, in %, no unit attached.

Completed entries (count: 5):
CC(=O)N1N=C(c2cccc(Nc3ccncc3)c2)CC1c1ccc2c(c1)OCO2 (centres undefined) ... 99.9
COc1ccc(CNCCN2C(=O)c3ccc4c5c(ccc(c35)C2=O)C(=O)N(CCNCc2ccc(OC)cc2)C4=O)cc1 ... -74.2
COc1ccccc1C(C[N+](=O)[O-])c1c(-c2ccccc2)[nH]c2cc(C)ccc12 (centres undefined) ... 62.8
COc1ccc(/C(=C\c2ccccc2)C(=O)O)cc1OC ... 98.3
Cn1c2c(Cl)c(Cl)ccc2c2cc(N)[nH]c(=O)c21 ... 116

q: Write down growth measured for item COc1ccc(-c2nc3sccn3c2/C=C/C(=O)c2cc(OC)c(OC)c(OC)c2)cc1
a: 43.9

q: Write down growth measured for item NC(=O)c1cccc(-n2ccc3cc(NC(=O)Nc4cc(C(F)(F)F)cc(C(F)(F)F)c4)ccc32)n1
a: 76.6

q: Write down growth measured for item C=CCn1c(SCC(=O)Nc2ccc(C(=O)/C=C/c3cc(OC)c(OC)c(OC)c3)cc2)nnc1-c1cc(-c2ccc(S(C)(=O)=O)cc2)nc2ccccc12
a: 103

q: Write down growth measured for item C=C(C)[C@@H]1CC[C@]2(CO)CC[C@]3(C)[C@H](CC[C@@H]4[C@@]5(C)CCCNC(C)(C)[C@@H]5CC[C@]43C)[C@@H]12
a: 78.8

---

system: CCRF-CEM leukemia; assay: NCI-60 one-dose screen, 48 h; details: 10 µM unless noted
About 83,000 compounds went through this panel and 20% of them were active in at least one assay; those are over-represented in the sample as a whole. The source made the active and inactive calls. Rule for the calls: active = growth percent below 10; inactive = the rest.
Classes to choose from: active, inactive

# example entries with known answers
COc1ccc(/C=C2\COc3ccc(-c4ccccc4)cc3C2=O)cc1O ... active
CC(=O)c1cccc(NS(=O)(=O)c2cccc(C(=O)Nc3ccc(Br)cc3)c2)c1 ... inactive

q: How did this test come out for COc1ccc(C(=O)/C=C/c2c(OC)cc(OC)cc2OC)c(OC)c1 ?
a: active

q: How did this test come out for COc1ccc(C2CC(c3cccc(Nc4ccncc4)c3)=NN2c2cc(Cl)cc(Cl)c2)cc1 (centres undefined) ?
a: active

q: How did this test come out for CCN(CC)CCSCCCNc1c(C)cnc2cc(Cl)ccc12 ?
a: inactive

q: How did this test come out for COc1cccc2c1C(=O)c1c(O)c3c(c(O)c1C2=O)C[C@@](O)(C(=O)CO)C[C@@H]3O[C@H]1C[C@H](N)[C@@H](O)[C@H](C)O1 ?
a: active

q: How did this test come out for COc1cc(-c2nc3occn3c2-c2ccnc(NCCNS(=O)(=O)c3ccc(Cl)cc3)n2)ccc1F ?
a: inactive

---

test system: UO-31 renal; test: NCI-60 one-dose screen, 48 h (100 = growth as untreated, 0 = no growth, -100 = all killed); settings: 10 µM unless noted
This is part of a sample that, as a whole, favours compounds with a hit. Of some 83,000 tested, about 20% had one in any assay.
Labelling: growth reported below 40% becomes met; at or above becomes not met.

C(=N\Nc1ncc(-c2cc3cc4c(cc3o2)OCO4)s1)/c1c[nH]c2ccccc12 ... met
CCCCc1ccc(Nc2nnc(SCC(=O)NC(=O)NCC)s2)cc1 ... not met
CN1C(=O)N(C)C2NC(N/N=C/c3ccccc3)=NC21 (stereo not given) ... not met

Kindly consider the entry below.
q: In plain terms, does COc1ccc2nc(N=Nc3c(O)ccc4ccccc34)sc2c1 come in under 40% for growth?
a: met

---

system: OVCAR-4 ovarian; assay: NCI-60 one-dose screen, 48 h (100 = growth as untreated, 0 = no growth, -100 = all killed); conditions: 10 µM unless noted
About 83,000 compounds went through this panel and 20% of them were active in at least one assay; those are over-represented in the sample as a whole.
Recorded growth, one value per entry.
Just the number please, in %, no unit attached.

Completed entries (count: 3):
CC1(C)NCCC[C@]2(C)[C@H]3CC=C4[C@@H]5C[C@@](C)(CO)CC[C@]5(C)CC[C@@]4(C)[C@]3(C)CC[C@@H]12 ... 60.8
CCCCOc1ccc(/C=N/Nc2cc(C)nc3ccc(Cl)cc23)cc1 ... 5.29
COc1ccccc1/C=C1\Oc2cc(OCCCN3CCCC3)ccc2C1=O ... 89

q: Write down growth measured for item O=C(CN1CCOCC1)Nc1ccc2ncnc(Nc3ccc(OCc4cccc(F)c4)c(Cl)c3)c2c1
a: 72

q: Write down growth measured for item COc1ccc(C(=O)c2cc3c(N)c(C(=O)Nc4ccc(Br)cc4)sc3nc2C)cc1
a: 0.804

q: Write down growth measured for item COc1ccc(Cc2nc3cc(OC)c(OC)cc3c(=O)[nH]2)cc1
a: 105

---

test system: SNB-19 CNS; assay: NCI-60 one-dose screen, 48 h (100 = growth as untreated, 0 = no growth, -100 = all killed); conditions: 10 µM unless noted
The panel holds about 83,000 compounds, 20% with a hit somewhere; the sample as a whole holds those more often.
RESULT_TYPE: growth (%)
Just the number please, in %, no unit attached.

COc1cccc(CCC(=O)c2cc3c(N)c(C(=O)Nc4ccccc4)sc3nc2C)c1 ... 38.5

q: Write down growth measured for item COc1ccc(-c2nc(N=Nc3c(O)[nH]c4ccccc34)nc(N3CCOCC3)c2C#N)cc1
a: 72.6

q: Write down growth measured for item CCN(CC)CCSCCCNc1c(C)cnc2cc(Cl)ccc12
a: 104

q: Write down growth measured for item Nc1nnc(C(=O)c2cnc3n(c2=O)CCCCC3)s1
a: 102

q: Write down growth measured for item O=S(=O)(c1ccccc1)N1CCCc2ccccc21
a: 97.2

q: Write down growth measured for item CCCCCCCCOc1ccc(/C=N/Nc2cc(C)nc3ccc(Cl)cc23)cc1
a: 9.5

q: Write down growth measured for item O=C(Nc1nc(-c2ccccc2Cl)cs1)c1cc(-c2ccccc2)nc2ccc(Cl)cc12
a: 80.6

q: Write down growth measured for item CCCCCCOc1ccc(/C=N/Nc2cc(C)nc3ccc(Br)cc23)cc1
a: -73.7

q: Write down growth measured for item COc1cccc(CNCCN2C(=O)c3ccc4c5c(ccc(c35)C2=O)C(=O)N(CCNCc2cccc(OC)c2)C4=O)c1
a: 84.2

q: Write down growth measured for item COc1cc(/C=C2\C(=O)N(Cc3ccc(Cl)cc3)c3ccccc32)cc(OC)c1OC
a: 50.3
